Recorded MIC, one value per entry.
# Tested on: Mycobacterium avium MA CNCTC My 330/88
# EXPERIMENT DESCRIPTION: In vitro antimycobacterial evaluation
# Format: cell-based
# CONDITIONS: 21h, IC90 value
Provide the reading as a plain figure in µM.

Consider the reported MIC for these compounds:
O=C(N[C@H](Cc1ccccc1)C(=O)Nc1ccc(Cl)cc1)c1cc(Cl)ccc1O    32
O=C(N[C@@H](Cc1ccccc1)C(=O)Nc1ccc(Br)cc1)c1cc(Cl)ccc1O    250
CC(C)[C@H](NC(=O)c1ccc(Cl)cc1O)C(=O)Nc1ccc(Cl)cc1    125
CC(C)[C@@H](NC(=O)c1ccc(Cl)cc1O)C(=O)Nc1ccc(Cl)cc1    62.5
C[C@H](NC(=O)c1cc(Cl)ccc1O)C(=O)Nc1ccc(Cl)c(Cl)c1    62.5

Could you now look at the following compound, please?
Output reported MIC of the compound O=C(N[C@@H](Cc1ccccc1)C(=O)Nc1cccc(Cl)c1)c1cc(Cl)ccc1O on Mycobacterium avium MA CNCTC My 330/88. 250
